System: bone marrow cells
Experiment: Bone marrow cell proliferation assay
Type: in vivo, C57B1/6J mice
Settings: 10 ug/injection i.p. twice daily, four days; mean +/- S.E. of 4 experiments
MEASURE NAME: CFU
The reply must contain the numeric value and, after it, the unit.

Q. Report CFU for OC1CN2C[C@@H](O)[C@@H](O)[C@H]2[C@H](O)C1O (stereo partly drawn) [6,7-dihydroxy-SW] please.
A. 538 ± 5 colonies/10^7 cells

Q. How about this compound: CCCCCCCCCCCCCC(=O)OC1CCCN2CC(O)C(O)C12 (stereo not drawn)
A. 226 ± 6 colonies/10^7 cells

Q. // next record CCCC(=O)OC1CN2CCCC(O)C2C1O (stereo not drawn)
A. 545 ± 59 colonies/10^7 cells

Q. Same for CCCCCCCCCCCCCCCC(=O)OC1CCCN2CC(O)C(O)C12 (stereo not drawn)
A. 553 ± 32 colonies/10^7 cells

Q. Repeat for the following compound: CCCCCCCC(=O)OC1CN2CCCC(O)C2C1O (stereo not drawn)
A. 482 ± 22 colonies/10^7 cells

Q. Next compound: O=C(OC1CN2CCCC(O)C2C1O)c1ccccc1 (stereo not drawn)
A. 421 ± 44 colonies/10^7 cells

Q. And for Cc1ccc(C(=O)O[C@@H]2CN3CCC[C@@H](O)[C@@H]3[C@@H]2O)cc1 ?
A. 384 ± 25 colonies/10^7 cells

Q. Next up: O=C(OC1CN2CCCC(O)C2C1O)c1ccc([N+](=O)[O-])cc1 (stereo not drawn)
A. 380 ± 7 colonies/10^7 cells

Q. Also, O[C@H]1[C@H]2[C@H](O)CCCN2C[C@H]1O [SW, Swainsonine, reference compound] please.
A. 540 ± 34 colonies/10^7 cells

Every entry's value here was drawn from patent US5773239A.
